Molecular target: D(2) dopamine receptor (Homo sapiens, UniProt P14416)
Sequence (P14416 whole entry): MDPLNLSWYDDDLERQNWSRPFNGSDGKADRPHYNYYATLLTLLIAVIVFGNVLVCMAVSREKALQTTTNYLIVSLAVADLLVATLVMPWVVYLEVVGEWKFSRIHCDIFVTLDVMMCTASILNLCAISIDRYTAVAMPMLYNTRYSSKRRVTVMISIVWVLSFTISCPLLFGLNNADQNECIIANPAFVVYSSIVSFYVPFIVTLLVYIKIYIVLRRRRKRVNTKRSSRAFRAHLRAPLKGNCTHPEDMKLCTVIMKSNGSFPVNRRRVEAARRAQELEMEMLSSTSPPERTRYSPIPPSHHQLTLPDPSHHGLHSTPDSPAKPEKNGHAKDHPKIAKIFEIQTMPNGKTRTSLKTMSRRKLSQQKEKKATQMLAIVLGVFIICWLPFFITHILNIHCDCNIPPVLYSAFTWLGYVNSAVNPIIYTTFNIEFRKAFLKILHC
Experiment: Displacement of [3H]spiperone from dopamine D2 receptor (unknown origin) expressed in human HEK293 cells by liquid scintillation counter
observation-type: Ki (nM)
Give just the number in nM; leave the unit off.

Return reported Ki; argument: `COc1cc2c(cc1O)CCN1Cc3c(ccc(O)c3OC)C[C@@H]21`
113

Return reported Ki; argument: `COc1ccc2c(c1OC)CN1CCc3cc4c(cc3[C@@H]1C2)OCO4`
119

Return reported Ki; argument: `COc1cc2c(cc1OC)[C@@H]1Cc3ccc(O)c(OC)c3CN1CC2`
305

* * *

Target: D(2) dopamine receptor (Homo sapiens, UniProt P14416)
Conditions: HEK293, at 10 µM
Record form. Attribute: inhibition. Fill in for each entry.
Give just the number in %; leave the unit off.

Return reported inhibition; argument: `COc1cc2c(cc1O)[C@@H]1Cc3ccc(OC)c(O)c3CN1CC2`
93.4

Return reported inhibition; argument: `COc1ccc2c(c1OC)CN1CCc3cc4c(cc3[C@@H]1C2)OCO4`
88.7

Return reported inhibition; argument: `COc1cc2c(cc1OC)[C@@H]1Cc3ccc(O)c(OC)c3CN1CC2`
88.8

Return reported inhibition; argument: `COc1cc2c(cc1O)CCN1Cc3c(ccc(OC)c3O)C[C@@H]21`
79.8

Return reported inhibition; argument: `COc1cc2c(cc1OC)[C@H]1Cc3ccc(O)c(OC)c3CN1CC2`
3.4

* * *

Record form. Attribute: inhibition. Fill in for each entry.
Target: D(1A) dopamine receptor (Homo sapiens, UniProt P21728)
Sequence (P21728 whole entry): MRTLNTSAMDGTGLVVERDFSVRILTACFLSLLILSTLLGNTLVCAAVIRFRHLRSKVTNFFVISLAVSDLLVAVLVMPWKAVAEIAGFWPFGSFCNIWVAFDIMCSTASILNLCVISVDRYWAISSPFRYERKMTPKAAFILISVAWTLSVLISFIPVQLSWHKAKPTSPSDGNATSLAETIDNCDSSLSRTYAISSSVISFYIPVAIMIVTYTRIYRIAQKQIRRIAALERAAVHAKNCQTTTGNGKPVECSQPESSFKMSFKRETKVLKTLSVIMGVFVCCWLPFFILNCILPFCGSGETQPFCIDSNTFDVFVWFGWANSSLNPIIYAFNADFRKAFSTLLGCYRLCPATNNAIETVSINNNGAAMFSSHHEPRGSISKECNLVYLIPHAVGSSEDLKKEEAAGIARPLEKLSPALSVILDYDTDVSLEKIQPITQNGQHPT
Test: Inhibition of [3H]SCH23390 binding to dopamine D1 receptor (unknown origin) expressed in human HEK293 cells at 10 uM by liquid scintillation counter relative to control
Assay type: cell-based
Give just the number in %; leave the unit off.

GET /values?readout=inhibition&system=D(1A) dopamine receptor (Homo sapiens, UniProt P21728)&item= `COc1cc2c(cc1O)[C@H]1Cc3ccc(O)c(OC)c3CN1CC2`
94.4

GET /values?readout=inhibition&system=D(1A) dopamine receptor (Homo sapiens, UniProt P21728)&item= `COc1cc2c(cc1O)CCN1Cc3c(ccc(OC)c3OC)C[C@H]21`
88.8

GET /values?readout=inhibition&system=D(1A) dopamine receptor (Homo sapiens, UniProt P21728)&item= `COc1cc2c(cc1OC)[C@H]1Cc3ccc(OC)c(OC)c3CN1CC2`
39.8

GET /values?readout=inhibition&system=D(1A) dopamine receptor (Homo sapiens, UniProt P21728)&item= `COc1c(O)ccc2c1CN1CCc3cc4c(cc3[C@@H]1C2)OCCO4`
22.6

GET /values?readout=inhibition&system=D(1A) dopamine receptor (Homo sapiens, UniProt P21728)&item= `COc1cc2c(cc1O)[C@@H]1Cc3c(CO)c(OC)cc(OC)c3CN1CC2`
104

GET /values?readout=inhibition&system=D(1A) dopamine receptor (Homo sapiens, UniProt P21728)&item= `COc1cc2c(cc1O)CCN1Cc3c(ccc(O)c3OC)C[C@H]21`
67.1

GET /values?readout=inhibition&system=D(1A) dopamine receptor (Homo sapiens, UniProt P21728)&item= `COc1cc2c(cc1O)CCN1Cc3c(ccc(OC)c3OC)C[C@@H]21`
84.1

GET /values?readout=inhibition&system=D(1A) dopamine receptor (Homo sapiens, UniProt P21728)&item= `COc1cc2c(cc1O)CCN1Cc3c(ccc(O)c3OC)C[C@@H]21`
98.3

GET /values?readout=inhibition&system=D(1A) dopamine receptor (Homo sapiens, UniProt P21728)&item= `COc1cc2c(cc1OC)[C@H]1Cc3ccc(O)c(OC)c3CN1CC2`
54.4

GET /values?readout=inhibition&system=D(1A) dopamine receptor (Homo sapiens, UniProt P21728)&item= `COc1ccc2c(c1O)CN1CCc3cc4c(cc3[C@H]1C2)OCO4`
78.9

GET /values?readout=inhibition&system=D(1A) dopamine receptor (Homo sapiens, UniProt P21728)&item= `COc1cc2c(cc1O)[C@@H]1Cc3ccc(OC)c(OC)c3CN1CC2`
99.2

GET /values?readout=inhibition&system=D(1A) dopamine receptor (Homo sapiens, UniProt P21728)&item= `COc1cc2c(cc1O)CCN1Cc3c(ccc(OC)c3O)C[C@H]21`
49.4

GET /values?readout=inhibition&system=D(1A) dopamine receptor (Homo sapiens, UniProt P21728)&item= `COc1cc2c(cc1O)[C@H]1Cc3ccc(OC)c(OC)c3CN1CC2`
99.5

GET /values?readout=inhibition&system=D(1A) dopamine receptor (Homo sapiens, UniProt P21728)&item= `COc1cc2c(cc1O)[C@@H]1Cc3cc4c(cc3CN1CC2)OCO4`
99.6

GET /values?readout=inhibition&system=D(1A) dopamine receptor (Homo sapiens, UniProt P21728)&item= `COc1ccc2c(c1O)CN1CCc3cc4c(cc3[C@@H]1C2)OCO4`
98.7

GET /values?readout=inhibition&system=D(1A) dopamine receptor (Homo sapiens, UniProt P21728)&item= `COc1cc2c(cc1O)CCN1Cc3c(ccc(OC)c3O)C[C@@H]21`
95.2

GET /values?readout=inhibition&system=D(1A) dopamine receptor (Homo sapiens, UniProt P21728)&item= `COc1cc2c(cc1OC)[C@@H]1Cc3ccc(O)c(OC)c3CN1CC2`
98.8

GET /values?readout=inhibition&system=D(1A) dopamine receptor (Homo sapiens, UniProt P21728)&item= COc1cc2c(cc1OC)[C@@H]1Cc3ccc(OC)c(OC)c3CN1CC2 [TETRAHYDROPALMATINE]
96.9

GET /values?readout=inhibition&system=D(1A) dopamine receptor (Homo sapiens, UniProt P21728)&item= `COc1ccc2c(c1OC)CN1CCc3cc4c(cc3[C@H]1C2)OCO4`
75.5

GET /values?readout=inhibition&system=D(1A) dopamine receptor (Homo sapiens, UniProt P21728)&item= `COc1cc2c(cc1O)[C@@H]1Cc3ccc(O)c(OC)c3CN1CC2`
99.8

GET /values?readout=inhibition&system=D(1A) dopamine receptor (Homo sapiens, UniProt P21728)&item= `COc1cc2c(cc1O)[C@H]1Cc3ccc(OC)c(O)c3CN1CC2`
84.5

GET /values?readout=inhibition&system=D(1A) dopamine receptor (Homo sapiens, UniProt P21728)&item= `COc1cc2c(cc1O)[C@@H]1Cc3ccc(OC)c(O)c3CN1CC2`
99.1

Source: ChEMBL document CHEMBL2331343
